Overview of reported pIC50 across a group of compounds:
target: Beta Secretase enzyme (BACE) (Homo sapiens); assay: In vitro enzymatic BACE FRET (fluorescence resonance energy transfer) assay; format: biochemical; conditions: BACE enzyme assay IC50; read-out: BACE1 FRET assay;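 also: fluorescence read after 1 h with 50 nM quenched peptide substrate spanning the BACE cleavage site, in pH 4.2 acetate buffer containing 10% DMSO and nonionic detergent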
Sequence (P56817 46-501): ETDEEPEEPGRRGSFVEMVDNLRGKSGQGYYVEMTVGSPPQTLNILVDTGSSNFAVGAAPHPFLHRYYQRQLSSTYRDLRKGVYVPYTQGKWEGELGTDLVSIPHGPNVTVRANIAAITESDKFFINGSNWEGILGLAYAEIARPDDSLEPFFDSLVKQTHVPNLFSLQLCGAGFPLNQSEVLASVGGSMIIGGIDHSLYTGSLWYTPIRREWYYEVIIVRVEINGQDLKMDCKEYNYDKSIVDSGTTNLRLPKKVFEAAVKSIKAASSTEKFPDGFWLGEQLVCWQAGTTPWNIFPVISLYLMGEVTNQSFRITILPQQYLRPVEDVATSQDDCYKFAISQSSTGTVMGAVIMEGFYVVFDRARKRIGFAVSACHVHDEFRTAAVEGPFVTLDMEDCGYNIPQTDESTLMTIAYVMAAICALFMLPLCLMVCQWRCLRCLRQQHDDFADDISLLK
pIC50: −log10 of the molar value.

>  <CHEMICAL SMILES>
CNc1nc(CC(C)C)cc2c1OC1(CCC1)C[C@@H]2NC[C@@H](O)[C@H](Cc1ccc2c(c1)OCO2)NC(=O)[C@@H](C)OC

>  <ASSAY TARGET>
Beta Secretase enzyme (BACE) (Homo sapiens)

>  <pIC50>
6.85

$$$$
>  <CHEMICAL SMILES>
C#Cc1cc(F)cc(C[C@H](NC(C)=O)[C@H](O)CN[C@H]2CC3(CCC3)Oc3ncc(CC(C)(C)C)cc32)c1

>  <ASSAY TARGET>
Beta Secretase enzyme (BACE) (Homo sapiens)

>  <pIC50>
8.52

$$$$
>  <CHEMICAL SMILES>
COCC(=O)N[C@@H](Cc1cccc(F)c1)[C@H](O)CN[C@H]1CC2(CCC2)Oc2c(-c3ccnc(N(C)C)c3)cc(CC(C)(C)C)cc21

>  <ASSAY TARGET>
Beta Secretase enzyme (BACE) (Homo sapiens)

>  <pIC50>
7.70

$$$$
>  <CHEMICAL SMILES>
CCOCC(=O)N[C@@H](Cc1ccc2c(c1)OCO2)[C@H](O)CN[C@H]1CC2(CCC2)Oc2ncc(CC(C)C)cc21

>  <ASSAY TARGET>
Beta Secretase enzyme (BACE) (Homo sapiens)

>  <pIC50>
7.24

$$$$
>  <CHEMICAL SMILES>
COCC(=O)N[C@@H](Cc1cc(F)cc(-c2nccs2)c1)[C@H](O)CN[C@H]1CC2(CCC2)Oc2ncc(C3CC3)cc21

>  <ASSAY TARGET>
Beta Secretase enzyme (BACE) (Homo sapiens)

>  <pIC50>
7.34

$$$$
>  <CHEMICAL SMILES>
CO[C@H](C)C(=O)N[C@@H](Cc1cc(F)cc(Cl)c1)[C@H](O)CN[C@H]1CC2(CCC2)Oc2cnc(CC(C)(C)F)cc21

>  <ASSAY TARGET>
Beta Secretase enzyme (BACE) (Homo sapiens)

>  <pIC50>
7.62

$$$$
